This collection of values is drawn from the Human Domainome abundance scans (Beltran et al. 2025).

B1: Serine/threonine-protein kinase A-Raf, residues 21 to 89; numbered along this chain, P10398 (parent)
chain: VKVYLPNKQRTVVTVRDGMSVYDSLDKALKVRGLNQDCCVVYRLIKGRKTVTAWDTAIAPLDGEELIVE

- Variants of: B1
- Assay Summary: abundance fitness (aPCA) (normalised: wild type 0, dead -1); higher = more abundant; growth selection in yeast, the domain comes from the species named
- Condition Set: Homo sapiens
Binary call on abundance fitness: 1 from -0.6 upward, -1 beneath that.

{"Mutation String": "G33R", "Answer Label": -1}
{"Mutation String": "R48A", "Answer Label": 1}
{"Mutation String": "D17F", "Answer Label": 1}
{"Mutation String": "V3T", "Answer Label": -1}
{"Mutation String": "S24C", "Answer Label": 1}
{"Mutation String": "S24M", "Answer Label": 1}
{"Mutation String": "Q9N", "Answer Label": 1}
{"Mutation String": "M19T", "Answer Label": 1}
{"Mutation String": "S20A", "Answer Label": -1}
{"Mutation String": "Q9S", "Answer Label": 1}
{"Mutation String": "R43D", "Answer Label": -1}
{"Mutation String": "W54R", "Answer Label": -1}
{"Mutation String": "K30S", "Answer Label": 1}
{"Mutation String": "I58C", "Answer Label": 1}
{"Mutation String": "V1M", "Answer Label": 1}
{"Mutation String": "V31A", "Answer Label": 1}
{"Mutation String": "V13M", "Answer Label": -1}
{"Mutation String": "D26W", "Answer Label": 1}
{"Mutation String": "Q9C", "Answer Label": 1}
{"Mutation String": "G47F", "Answer Label": -1}
{"Mutation String": "I45Y", "Answer Label": 1}
{"Mutation String": "R16P", "Answer Label": 1}
{"Mutation String": "E64M", "Answer Label": 1}
{"Mutation String": "G33Q", "Answer Label": 1}
{"Mutation String": "S20T", "Answer Label": 1}
{"Mutation String": "C39M", "Answer Label": 1}
{"Mutation String": "S24K", "Answer Label": -1}
{"Mutation String": "D62Y", "Answer Label": 1}
{"Mutation String": "T52M", "Answer Label": 1}
{"Mutation String": "A59L", "Answer Label": 1}
{"Mutation String": "L5S", "Answer Label": -1}
{"Mutation String": "Y4H", "Answer Label": 1}
{"Mutation String": "K46W", "Answer Label": -1}
{"Mutation String": "K8R", "Answer Label": 1}
{"Mutation String": "A59C", "Answer Label": 1}
{"Mutation String": "Q9M", "Answer Label": 1}
{"Mutation String": "S20D", "Answer Label": 1}
{"Mutation String": "R32M", "Answer Label": 1}
{"Mutation String": "G18Q", "Answer Label": 1}
{"Mutation String": "G63R", "Answer Label": -1}
{"Mutation String": "N7Q", "Answer Label": 1}
{"Mutation String": "V31I", "Answer Label": 1}
{"Mutation String": "K30P", "Answer Label": -1}
{"Mutation String": "L5R", "Answer Label": -1}
{"Mutation String": "V15W", "Answer Label": 1}
{"Mutation String": "M19H", "Answer Label": 1}
{"Mutation String": "T56G", "Answer Label": 1}
{"Mutation String": "C39R", "Answer Label": -1}
{"Mutation String": "C39N", "Answer Label": -1}
{"Mutation String": "G63N", "Answer Label": 1}
{"Mutation String": "P60V", "Answer Label": 1}
{"Mutation String": "V15R", "Answer Label": -1}
{"Mutation String": "N7F", "Answer Label": 1}
{"Mutation String": "C39P", "Answer Label": -1}
{"Mutation String": "V31Y", "Answer Label": 1}
{"Mutation String": "T14W", "Answer Label": 1}
{"Mutation String": "G33K", "Answer Label": 1}
{"Mutation String": "Y22C", "Answer Label": 1}
{"Mutation String": "L34C", "Answer Label": -1}
{"Mutation String": "K8N", "Answer Label": 1}
{"Mutation String": "K8W", "Answer Label": 1}
{"Mutation String": "V3K", "Answer Label": -1}
{"Mutation String": "R43C", "Answer Label": -1}
{"Mutation String": "G63P", "Answer Label": 1}
{"Mutation String": "R16V", "Answer Label": 1}
{"Mutation String": "Y4Q", "Answer Label": 1}
{"Mutation String": "R32G", "Answer Label": 1}
{"Mutation String": "A59S", "Answer Label": 1}
{"Mutation String": "A53K", "Answer Label": 1}
{"Mutation String": "V12A", "Answer Label": 1}
{"Mutation String": "G33T", "Answer Label": -1}
{"Mutation String": "Q36G", "Answer Label": 1}
{"Mutation String": "R48F", "Answer Label": 1}
{"Mutation String": "Y42K", "Answer Label": 1}
{"Mutation String": "R43E", "Answer Label": -1}
{"Mutation String": "L61Q", "Answer Label": 1}
{"Mutation String": "S24E", "Answer Label": -1}
{"Mutation String": "K46V", "Answer Label": -1}
{"Mutation String": "V41A", "Answer Label": 1}
{"Mutation String": "Q9T", "Answer Label": 1}
{"Mutation String": "V40M", "Answer Label": 1}
{"Mutation String": "E64F", "Answer Label": -1}
{"Mutation String": "Y42E", "Answer Label": -1}
